Assay: NCI Yeast Anticancer Drug Screen. Data for the rad50 strain (AID 155);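 further: 0% = growth of vehicle-only cultures of the same strain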
Settings: S. cerevisiae rad50 strain growth inhibition; at 50.0 µM (retest, dose inferred, filed as 5.0)
Compounds without any hit were thinned out: in the full panel of roughly 79,000, 15% have a hit. Active and inactive are the calls of the source. No stated cut-off is given here; in the data, active means growth inhibition above about 70%; inactive means the rest. Where a SMILES comes first, the peptide text is derived from it. The star is where a group is joined. Trt = c1ccc(C(c2ccccc2)(c2ccccc2)*)cc1; OtBu = CC(C)(C)O*
Outcome codes: 1.0 for active, 0.0 for inactive

- CC(=O)OC1CCC2(C)C(C1)C(OC(C)=O)CC1C3CCC(c4cccc(=O)o4)C3(C)CCC12 (stereo not given): 0.0
- O=C(Nc1cccc(Cl)c1)Oc1c(Br)cc(Br)cc1Br: 1.0
- CCC(c1ccc(O)cc1)C(O)(CC)c1ccc(O)cc1 (stereo not given): 0.0
- O=C(O)COc1cc(Br)cc(Br)c1-c1ccccc1: 0.0
- Cc1ccc(C(CN(C)C)C(=O)c2ccccc2)cc1C (stereo not given): 1.0
- CCCCCCCCCCCC[N+](C)(C)C (tested in a mixture with another compound): 1.0
- Cc1ccc(NC(=S)SCc2ccc3c(c2)OCO3)cc1Br: 1.0
- CCCCCCC(/C=C/c1c(Cl)cccc1Cl)=N\O: 0.0
- CCCCCC(C)(O)C#CC(C)(O)CCCCC (stereo not given): 1.0
- N#C/C(=C/c1cc(I)cc(I)c1O)C(N)=O: 1.0
- CCCc1cc(-c2ccc(O)c(CCC)c2)ccc1O: 1.0
- Brc1ccc(N=Nc2ccc(-c3ccc[cH-]3)cc2)cc1.[Fe+2].c1cc[cH-]c1: 0.0
- O=[N+]([O-])C12CCCCC1([N+](=O)[O-])CCCC2 (stereo not given): 0.0
- O=C1C=CC(=O)N1c1cccc([N+](=O)[O-])c1: 1.0
- CCOC(=O)c1ccc(O)c(OC)c1: 0.0
- O=C1OCCCN1/N=C/c1ccc([N+](=O)[O-])o1: 0.0
- CC(=O)Nc1ccc(C(=O)C(C)Br)cc1 (stereo not given): 1.0
- Cc1ccc2c(n1)C(=O)C=CC2=O: 1.0
- CC(Br)C(=O)c1ccc2cc(Cl)c3ccccc3c2c1 (stereo not given): 1.0
- CCc1cccc(CC)c1NC(=O)C1=C(C)NC(C)=C(C(=O)Nc2c(CC)cccc2CC)C1c1ccc2c(c1)OCO2: 0.0
- Nc1ccc(SCCCc2c(N)nc(N)nc2N)cc1: 0.0
- O=[N+]([O-])c1ccccc1CC(c1c[nH]c2ccccc12)c1c[nH]c2ccccc12: 1.0
- CCCCCCCC(CC(=O)O)OC(=O)CC(CCCCCCC)OC1OC(C)C(O)C(O)C1OC1OC(C)C(O)C(O)C1O (stereo not given): 0.0
- c1ccc(C2=NOC3(c4ccccc4)SC4CCCCC4CN23)cc1 (stereo not given): 1.0
- O=[N+]([O-])C1=Cc2cc(Cl)ccc2OC1c1cccc2ccccc12 (stereo not given): 1.0
- CCOc1ccccc1NC1=C(Cl)C(=O)c2ccccc2C1=O: 1.0
- O=c1cccccc1[O-].O=c1cccccc1[O-].O=c1cccccc1[O-].[Ce+3]: 0.0
- CC(=O)N1CC(C)CC2OC3(CCC4C5CCC6CC(O)CCC6(C)C5C(=O)C4C3C)C(C)C21 (stereo not given): 1.0
- O=C1OC(=O)C2C1C1(c3ccccc3)OC2(c2ccccc2)c2c(Br)c(Br)c(Br)c(Br)c21 (stereo not given): 1.0
- C[n+]1cc2c3ccccc3ccc2c2ccccc21: 1.0
- O=S(=O)(c1cc(Cl)ccc1Cl)N1CCc2ccccc2C1: 0.0
- O=C1C(=O)c2ccccc2C(O)=C1C(c1ccccc1)c1ccccc1: 1.0
- CC(O)c1c2ccccc2cc2ccccc12 (stereo not given): 1.0
- CC1=C/C(=C\c2ccc([N+](=O)[O-])o2)C(=O)O1: 1.0
- [N-]=[N+]=Nc1c([N+](=O)[O-])c(Cl)nc2ccccc12: 1.0
- COc1ccc(C2c3cc4c(cc3OC(N3CCCC3)C2C)OCO4)c(OC)c1 (stereo not given): 1.0
- CS/C(=N\N=C(/C)c1ccccn1)N1CCN(c2ccccn2)CC1: 0.0
- Nc1ccc(-c2nc3ccccc3s2)cc1: 1.0
- O=NN(CCCl)C(=O)NCCSSCCNC(=O)N(CCCl)N=O (tested in a mixture with another compound): 0.0
- CCN(C(C)=O)c1cnc(/C=N/NC(N)=S)c2ccccc12: 0.0
- S=C(NC(=S)Nc1ccccc1)Nc1ccccc1: 0.0
- Cc1ccc2ccc(C(Nc3ccccc3)c3ccncc3)c(O)c2n1 (stereo not given): 1.0
- CC(C)(C)OC(=O)CNC(=O)C(Cc1ccccc1)NC(=O)C(N)CSC(c1ccccc1)(c1ccccc1)c1ccccc1 (stereo not drawn) (H-Cys(Trt)-Phe-Gly-OtBu; configuration not given here): 0.0
- Oc1ccc(Cc2ccccc2)cc1Cl: 1.0
- CC(=O)c1ccc2sc3ccccc3c2c1: 1.0
